Assay: In vitro peptide stability in human blood plasma (RP-HPLC)
Details: human blood plasma
measurementType: remaining at 1 h, 80 µM
Put your answer as a value accompanied by its unit after it.

Prompt line: Determine its reported remaining at 1 h, 80 µM: CSCC[C@H](NC(=O)[C@@H]1CCCN1C(=O)CNC(=O)[C@H](CCCCN)NC(=O)[C@H](Cc1cnc[nH]1)NC(=O)[C@H](CO)NC(=O)[C@H](CC(C)C)NC(=O)[C@H](CCCNC(=N)N)NC(=O)[C@@H]1CCCN1C(=O)[C@H](CCCNC(=N)N)NC(=O)[C@H](CCC(N)=O)NC(=O)[C@H](CCCNC(=N)N)NC(=O)[C@H](CCCNC(=N)N)NC(=O)[C@H](Cc1ccccc1)NC(=O)[C@@H](N)CCCCN)C(=O)N1CCC[C@H]1C(=O)N[C@@H](Cc1ccccc1)C(=O)O [Peptide 2, reference compound]
Response line: 39%

----------
Tested on: recombinant human neprilysin (rhNEP, Sino Biological)
Assay: rhNEP diluted in Tris buffer (100 mM Tris, 100 mM NaCl, 10 μM ZnCl2, pH 7.5), 3.1 nM final concentration
Conditions: 37° C., up to 72 h
measurementType: cleaved bond

substance=Lys-Phe-Arg-Arg-Gln-Arg-Pro-Arg-D-Leu-Ser-His-Lys-Gly-Pro-Nle-Aib-paraBrPhe result="Nle15-Aib16, minor"
substance=pGlu-Arg-Pro-Arg-azaLeu-Ser-His-Lys-Gly-Pro-Nle-Aib-paraBrPhe result="Nle11-Aib12, minor"
substance=pGlu-Arg-Pro-Arg-NMeLeu-Ser-His-Lys-Gly-Pro-Nle-Aib-paraBrPhe result="Nle11-Aib12, minor"
substance=pGlu-Arg-Pro-Arg-αMeLeu-Ser-His-Lys-Gly-Pro-Nle-Aib-paraBrPhe result="Nle11-Aib12, minor"
substance=pGlu-Arg-Pro-αMeArg-Leu-Ser-His-Lys-Gly-Pro-Nle-Aib-paraBrPhe result="Nle11-Aib12, minor"

I'm hoping you can list cleaved bond for every substance here, please.
1. Lys-Phe-Arg-Arg-Gln-Arg-Pro-αMeArg-Leu-Ser-His-Lys-Gly-Pro-Nle-Aib-paraBrPhe
2. pGlu-Arg-Pro-azaArg-Leu-Ser-His-Lys-Gly-Pro-Nle-Aib-paraBrPhe
3. Lys-Phe-Arg-Arg-Gln-Arg-Pro-Arg-NMeLeu-Ser-His-Lys-Gly-Pro-Nle-Aib-paraBrPhe

Response line:
1: Nle15-Aib16, minor; 2: Nle11-Aib12, minor; 3: Nle15-Aib16, minor
